Data credit: ChEMBL document CHEMBL1131617

Hi there, I'd appreciate the recorded IC50 for every entry that follows.
Target: D(2) dopamine receptor (Rattus norvegicus)
Sequence (P61169 whole entry): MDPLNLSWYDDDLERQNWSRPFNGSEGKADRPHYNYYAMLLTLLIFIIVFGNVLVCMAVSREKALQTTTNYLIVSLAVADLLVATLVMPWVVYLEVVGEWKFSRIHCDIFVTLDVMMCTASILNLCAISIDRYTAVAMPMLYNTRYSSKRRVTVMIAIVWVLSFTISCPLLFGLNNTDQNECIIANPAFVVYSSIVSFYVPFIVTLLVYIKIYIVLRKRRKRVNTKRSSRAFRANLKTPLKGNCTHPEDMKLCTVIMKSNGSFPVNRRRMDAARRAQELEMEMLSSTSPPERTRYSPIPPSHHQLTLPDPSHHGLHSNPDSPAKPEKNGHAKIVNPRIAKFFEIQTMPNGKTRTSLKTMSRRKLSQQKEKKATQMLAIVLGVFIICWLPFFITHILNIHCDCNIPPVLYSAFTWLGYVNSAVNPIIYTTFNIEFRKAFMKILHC
Assay: relative affinity against Dopamine receptor D2 in striatum using [3H]YM-09151-2 as radioligand
Reply with just the number (in µM).

// recorded IC50 for CCN1CCc2c(sc3ccccc23)C(c2ccccc2)C1 (configuration not stated) : 5

// recorded IC50 for CN1CCc2c([nH]c3ccccc23)C(c2ccccc2)C1 (configuration not stated) : 27.2

// recorded IC50 for CCN1CCc2c(sc3ccccc23)C(c2ccc(Cl)c(Cl)c2)C1 (configuration not stated) : 5

// recorded IC50 for CCN1CCc2c(sc3ccccc23)C(c2cccc([N+](=O)[O-])c2)C1 (configuration not stated) : 3.1

// recorded IC50 for CCN1CCc2c(sc3ccccc23)C(c2cccc(Br)c2)C1 (configuration not stated) : 3.5

* * *

Hi there, I'd appreciate the recorded pIC50 for every entry that follows.
Just so you know, pIC50 here is -log10 of the concentration in molar units; reply with that number alone.

pIC50 for Sodium-dependent serotonin transporter (Rattus norvegicus, UniProt P31652) with input CCN1CCc2c(sc3ccccc23)C(c2cccc(Br)c2)C1 (centres undefined) equals 5.37

pIC50 for Sodium-dependent serotonin transporter (Rattus norvegicus, UniProt P31652) with input CC[C@H]1C[C@@H]2C[C@H]3c4[nH]c5ccc(OC)cc5c4CCN(C2)[C@@H]13 [IBOGAINE] equals 6.23

pIC50 for Sodium-dependent serotonin transporter (Rattus norvegicus, UniProt P31652) with input CCN1CCc2c(sc3ccccc23)C(c2ccc(Cl)c(Cl)c2)C1 (centres undefined) equals 5.92

pIC50 for Sodium-dependent serotonin transporter (Rattus norvegicus, UniProt P31652) with input `CC[C@@H]1CC2C[C@@H]3c4[nH]c5ccc(O)cc5c4CCN(C2)C13` equals 7.40
